experiment: Ligand charge of maytansinoid conjugates; format: physicochemical
Where a SMILES comes first, the peptide text is derived from it. Bridges are numbered along the chain shown (N, C = ends). [ ]: non-standard residue; d: D form. The star is where a group is joined. X1 = COc1cc2cc(c1Cl)N(C)C(=O)C[C@H](OC(=O)[C@H](C)N(C)C(=O)CCS*)[C@]1(C)O[C@H]1[C@H](C)[C@@H]1C[C@@](O)(NC(=O)O1)[C@H](OC)/C=C/C=C(\C)C2
Collected Ligand charge values appear next to each entry.

compound	Ligand charge
COc1cc2cc(c1Cl)N(C)C(=O)C[C@H](OC(=O)[C@H](C)N(C)C(=O)CCSC1CC(=O)N(CCCCCNC(=O)[C@@H](NC(=O)[C@@H]3CSSC[C@H](NC(=O)[C@@H](Cc4ccccc4)NC(=O)NC4CCCCC4)C(=O)N[C@@H](Cc4ccc(O)cc4)C(=O)N[C@H](Cc4c[nH]c5ccccc45)C(=O)N[C@@H](CCCCN)C(=O)N[C@@H]([C@@H](C)O)C(=O)N3)[C@@H](C)O)C1=O)[C@]1(C)O[C@H]1[C@H](C)[C@@H]1C[C@@](O)(NC(=O)O1)[C@H](OC)/C=C/C=C(\C)C2 (some centres unmarked) [Conjugate 22]	+1

// next item, Ligand charge requested
Ligand charge reading for COc1cc2cc(c1Cl)N(C)C(=O)C[C@H](OC(=O)[C@H](C)N(C)C(=O)CCSSC[C@H](NC(=O)[C@@H]1CSSC[C@H](NC(=O)[C@H](N)Cc3c[nH]c4ccccc34)C(=O)N[C@@H](Cc3ccc(O)cc3)C(=O)N[C@H](Cc3c[nH]c4ccccc34)C(=O)N[C@@H](CCCCN)C(=O)N[C@@H]([C@@H](C)O)C(=O)N1)C(N)=O)[C@]1(C)O[C@H]1[C@H](C)[C@@H]1C[C@@](O)(NC(=O)O1)[C@H](OC)/C=C/C=C(\C)C2 [Conjugate 24] (H-[dW]CY[dW]KTCC(X1)-NH2; disulfide 2-7) : +2
